Tested on: Vero
Assay: Cytotoxicity against African green monkey Vero cells assessed as reduction in cell viability after 48 hrs by MTT assay
Assay type: cell-based
Settings: Chlorocebus sabaeus

| COMPOUND SMILES | TGT | IC50 (nM) |
| --- | --- | --- |
| O=C1C(=O)c2ccccc2C2=C1CCCO2 | Vero | 1000 |

* * *

Tested on: Trypanosoma cruzi
Assay: Trypanocidal activity against Trypanosoma cruzi Y strain bloodstream trypomastigotes isolated from infected Swiss mouse infected with monkey LLC-MK2 cells after 5 days by fluorescence spectrophotometric analysis
Assay type: functional, organism-based
Conditions: LLC-MK2, 120 h
pIC50: −log10 of the molar value.

| COMPOUND | TGT | pIC50 |
| --- | --- | --- |
| CCCCCCCCCCC1CC2=C(O1)c1ccccc1C(=O)C2=O (stereo not drawn) | Trypanosoma cruzi | 4.33 |
| O=C(Cn1ccnc1[N+](=O)[O-])NCc1ccccc1 [BENZNIDAZOLE] | Trypanosoma cruzi | 4.70 |
| CCCCCCCCC1CC2=C(O1)c1ccccc1C(=O)C2=O (stereo not drawn) | Trypanosoma cruzi | 4.68 |

* * *

System: Trypanosoma cruzi
Experiment: Trypanocidal activity against Trypanosoma cruzi Y strain bloodstream trypomastigotes isolated from infected Swiss mouse after 24 hrs by Neubauer chamber method
Format: functional, organism-based
pIC50: −log10 of the molar value.

| COMPOUND SMILES | pIC50 |
| --- | --- |
| CCOC(=O)/C=C/c1cccc2c1C(=O)C=CC2=O | 4.20 |

* * *

System: HCT-116
Assay: Cytotoxicity against human HCT116 cells assessed as reduction in cell viability after 48 hrs
Assay type: functional, cell-based
Conditions: HCT-116, 48 h
ENDPOINT NAME: IC50

| COMPOUND | VALUE |
| --- | --- |
| CC1(C)OC2=C(C(=O)C(=O)c3ccccc32)C1Nc1cccc(-c2cn(C[Se]c3ccccc3)nn2)c1 (stereo unspecified) | < 100 nM |

* * *

Tested on: PC-3
Experiment: Cytotoxicity against human PC3 cells assessed as reduction in cell viability after 48 hrs
Assay type: functional, cell-based
Conditions: PC-3, 48 h

| COMPOUND | IC50 |
| --- | --- |
| CC1(C)OC2=C(C(=O)C(=O)c3ccccc32)C1Nc1cccc(-c2cn(C[Se]c3ccccc3)nn2)c1 (stereo unspecified) | < 100 nM |

* * *

System: L929
Test: Anticancer activity against mouse L929 cells
Assay type: functional, cell-based
ENDPOINT NAME: IC50 (nM)

| COMPOUND SMILES | VALUE |
| --- | --- |
| CC1(C)OC2=C(C(=O)C(=O)c3ccccc32)[C@H](n2cc(C[Se]c3ccc(F)cc3)nn2)[C@H]1Br | 360 |

* * *

System: Trypanosoma cruzi
Test: Anti-parasitic activity against epimastigotes form of Trypanosoma cruzi
Assay type: functional, organism-based
ENDPOINT NAME: IC50 (µM)

| MOLECULE | TGT | ENDPOINT NAME | MEASUREMENT UNIT | VALUE |
| --- | --- | --- | --- | --- |
| CCC(C)OP(=O)(N/N=C1\C(=O)C2=C(OC(C)(C)CC2)c2ccccc21)OC(C)CC (stereo unspecified) | Trypanosoma cruzi | IC50 | µM | 19 |
